- MEASUREMENT_DESCRIPTION: Kinetic assay of purified DAOCS with penicillin G (standard penicillin G assay, HPLC of cephalosporin G)
- Type: biochemical
- CONDITION_DETAILS: for penicillin G; 20 μg purified DAOCS, 1 mM α-ketoglutarate, 30° C.
MEASURED_PROPERTY: kcat (S^−1)
Give the number; S^−1 is assumed, so skip it.

Here's what some known entries look like.
# MOLECULE, kcat [S^−1]
measured = [
    ("YS49: mutated penicillin expandase (DAOCS) with substitution L277K (protein, UniProt P18548 1-311, looked up, variant L277K) Deacetoxycephalosporin C …: MDTTVPTFSLAELQQGLHQDEFRRCLRDKGLFYLTDCGLTDTELKSAKDLVIDFFEHGSEAEKRAVTSPVPTMRRGFTGLESESTAQITNTGSYSDYSMCYSMGTADNLFPSGDFERIWTQYFDRQYTASRAVAREVLRATGTEPDGGVEAFLDCEPLLRFRYFPQVPEHRSAEEQPLRMAPHYDLSMVTLIQQTPCANGFVSLQAEVGGAFTDLPYRPDAVLVFCGAIATLVTGGQVKAPRHHVAAPRRDQIAGSSRTSSVFFLRPNADFTFSVPKARECGFDVSLDGETATFQDWIGGNYVNIRRTSKA", 0.0514),
    ("YS71: mutated penicillin expandase (DAOCS) with substitution A106T (protein, UniProt P18548 1-311, looked up, variant A106T) Deacetoxycephalosporin C …: MDTTVPTFSLAELQQGLHQDEFRRCLRDKGLFYLTDCGLTDTELKSAKDLVIDFFEHGSEAEKRAVTSPVPTMRRGFTGLESESTAQITNTGSYSDYSMCYSMGTTDNLFPSGDFERIWTQYFDRQYTASRAVAREVLRATGTEPDGGVEAFLDCEPLLRFRYFPQVPEHRSAEEQPLRMAPHYDLSMVTLIQQTPCANGFVSLQAEVGGAFTDLPYRPDAVLVFCGAIATLVTGGQVKAPRHHVAAPRRDQIAGSSRTSSVFFLRPNADFTFSVPLARECGFDVSLDGETATFQDWIGGNYVNIRRTSKA", 0.0453),
    ("YS103: mutated penicillin expandase (DAOCS) with substitution M188V (protein, UniProt P18548 1-311, looked up, variant M188V) Deacetoxycephalosporin C …: MDTTVPTFSLAELQQGLHQDEFRRCLRDKGLFYLTDCGLTDTELKSAKDLVIDFFEHGSEAEKRAVTSPVPTMRRGFTGLESESTAQITNTGSYSDYSMCYSMGTADNLFPSGDFERIWTQYFDRQYTASRAVAREVLRATGTEPDGGVEAFLDCEPLLRFRYFPQVPEHRSAEEQPLRMAPHYDLSVVTLIQQTPCANGFVSLQAEVGGAFTDLPYRPDAVLVFCGAIATLVTGGQVKAPRHHVAAPRRDQIAGSSRTSSVFFLRPNADFTFSVPLARECGFDVSLDGETATFQDWIGGNYVNIRRTSKA", 0.0456),
]

Prompt: Could you tell me which kcat is on file for YS59: mutated penicillin expandase (DAOCS) with substitution G79E (protein, UniProt P18548 1-311, looked up, variant G79E) Deacetoxycephalosporin C …: MDTTVPTFSLAELQQGLHQDEFRRCLRDKGLFYLTDCGLTDTELKSAKDLVIDFFEHGSEAEKRAVTSPVPTMRRGFTELESESTAQITNTGSYSDYSMCYSMGTADNLFPSGDFERIWTQYFDRQYTASRAVAREVLRATGTEPDGGVEAFLDCEPLLRFRYFPQVPEHRSAEEQPLRMAPHYDLSMVTLIQQTPCANGFVSLQAEVGGAFTDLPYRPDAVLVFCGAIATLVTGGQVKAPRHHVAAPRRDQIAGSSRTSSVFFLRPNADFTFSVPLARECGFDVSLDGETATFQDWIGGNYVNIRRTSKA ?
Response: 0.0315

These entries and their values trace back to patent US6905854B2.
